Entries annotated with measured Kd
Target: T1, CCL14_HUMAN (Homo sapiens, UniProt Q16627)
T1 sequence (Q16627 20-93): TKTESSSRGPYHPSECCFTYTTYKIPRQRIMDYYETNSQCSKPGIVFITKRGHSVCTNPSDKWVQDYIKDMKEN
Test: Biolayer interferometry (BLI) binding
Please give a number only; it is taken to be in nM.

Solved cases (4 shown):
molecule: P1180_AMBTR: tick CKBP, Amblyomma triste (protein, Amblyomma triste) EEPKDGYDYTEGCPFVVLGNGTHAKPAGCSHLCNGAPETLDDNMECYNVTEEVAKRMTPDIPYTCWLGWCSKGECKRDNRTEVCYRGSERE
unit.symbol: nM
Kd: 4.4

molecule: P974_AMBCA: tick CKBP, Amblyomma cajennense; ACA-01 stated identical (protein, Amblyomma cajennense, tick CKBP, Amblyomma cajennense; ACA-01 stated identical) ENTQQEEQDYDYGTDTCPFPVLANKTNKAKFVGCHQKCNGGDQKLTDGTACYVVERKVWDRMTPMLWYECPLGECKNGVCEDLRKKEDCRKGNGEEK
unit.symbol: nM
Kd: 49.1

molecule: P983_AMBPA: tick CKBP; named P983_AMBCA in Table 1 (protein, Amblyomma cajennense) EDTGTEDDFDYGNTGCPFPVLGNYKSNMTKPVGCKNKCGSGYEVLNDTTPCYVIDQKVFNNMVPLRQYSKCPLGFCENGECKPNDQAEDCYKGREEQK
unit.symbol: nM
Kd: 81

molecule: P467_RHIPU: tick CKBP (evasin), Rhipicephalus pulchellus; RPU-01 stated identical (protein, listed as Rhipicephalus pulchellus) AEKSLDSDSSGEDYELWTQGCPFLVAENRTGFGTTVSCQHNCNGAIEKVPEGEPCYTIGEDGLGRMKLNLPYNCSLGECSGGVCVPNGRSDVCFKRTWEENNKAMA
unit.symbol: nM
Kd: 4.13

query: Fill in: Kd of P546_AMBCA: tick CKBP, Amblyomma cajennense (protein, Amblyomma cajennense) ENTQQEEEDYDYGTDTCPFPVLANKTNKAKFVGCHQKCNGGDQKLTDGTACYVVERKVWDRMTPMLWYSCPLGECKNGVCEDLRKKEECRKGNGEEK is ___
result: 28

query: Now consider P1182_AMBMA: tick CKBP, Amblyomma maculatum (protein, listed as Amblyomma maculatum) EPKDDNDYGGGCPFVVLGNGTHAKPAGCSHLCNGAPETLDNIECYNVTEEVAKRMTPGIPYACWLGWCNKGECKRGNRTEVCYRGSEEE and answer again.
result: 50

query: Then what about the molecule P1181_AMBMA: tick CKBP, Amblyomma maculatum (protein, listed as Amblyomma maculatum) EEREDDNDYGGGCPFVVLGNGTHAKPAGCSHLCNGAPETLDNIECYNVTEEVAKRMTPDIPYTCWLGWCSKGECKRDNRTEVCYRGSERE ?
result: 47
